# experimentalTarget: Beta-glucuronidase (Bos taurus)
# Sequence (A3KMY8 whole entry): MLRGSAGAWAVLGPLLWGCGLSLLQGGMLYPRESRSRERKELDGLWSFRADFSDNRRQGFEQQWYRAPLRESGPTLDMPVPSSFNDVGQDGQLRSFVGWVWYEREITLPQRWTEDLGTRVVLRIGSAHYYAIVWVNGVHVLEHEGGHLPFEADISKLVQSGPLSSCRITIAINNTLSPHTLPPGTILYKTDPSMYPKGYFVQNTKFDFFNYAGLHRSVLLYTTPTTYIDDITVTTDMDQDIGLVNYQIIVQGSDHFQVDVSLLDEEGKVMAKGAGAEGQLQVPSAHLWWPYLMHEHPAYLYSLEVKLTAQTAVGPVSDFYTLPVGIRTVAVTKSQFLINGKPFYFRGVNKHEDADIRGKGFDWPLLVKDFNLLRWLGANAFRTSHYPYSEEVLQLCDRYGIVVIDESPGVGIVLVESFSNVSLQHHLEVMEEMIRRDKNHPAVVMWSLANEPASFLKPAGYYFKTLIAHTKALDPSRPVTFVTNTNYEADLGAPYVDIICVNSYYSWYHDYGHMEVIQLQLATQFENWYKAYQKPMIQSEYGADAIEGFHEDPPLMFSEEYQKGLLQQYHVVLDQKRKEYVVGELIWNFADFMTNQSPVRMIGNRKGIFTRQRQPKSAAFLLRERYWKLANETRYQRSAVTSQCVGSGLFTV
readoutType: IC50 (µM)

These recorded examples may help you get a feel for the data.
Measured IC50, COc1ccc(Nc2nnc(-c3ccccc3Cl)s2)cc1 : 22.6

The compound listed as Cc1ccc(Nc2nnc(-c3ccc(Br)cc3)s2)cc1 shows IC50 equal to 28.6

P = CC(C)(C)c1ccc(-c2nnc(Nc3ccc(Br)cc3)s2)cc1
Q = Clc1ccc(Nc2nnc(-c3ccc(Br)cc3)s2)cc1Cl
(Q) IC50 comparison. Which is larger, P or Q ? Identify your selection by its label.
(A) P
